Just for reference, the Immune Epitope Database (IEDB) is where these values come from.

Molecular target: HLA-B*39:01
Experiment: IEDB peptide-MHC binding, purified MHC/direct/fluorescence; filed as Kd, often an IC50 or EC50 that approximates it; bounds were set here for any values at or beyond the usual limits of such assays
Conditions: source organism: Marburg virus - Musoke, Kenya, 1980
pKd: −log10 of the molar value.
metric name: pKd

Enquiry: Input `IFDDLQGSL` , output reported pKd.
Return: ≤ 4.70

###

Target: HLA-A*30:01
Assay: IEDB peptide-MHC binding, purified MHC/competitive/radioactivity; filed as Kd, often an IC50 or EC50 that approximates it; bounds were set here for any values at or beyond the usual limits of such assays
Settings: source organism: Dengue virus 3 Martinique/1243/1999
metric name: pKd
Reminder that pKd means the negative base-10 logarithm of the concentration expressed in mol/L.

Enquiry: Give recorded pKd. `ISQHNHRPGY`
Return: 7.91
